Please respond with reported Bmax (MFI) for every item in the list.
- target of assay: T1, cynomolgus NKp46 (cynomolgus monkey, UniProt Q95JB9 22-306)
- T1 construct: also called cyno NKp46; cynomolgus monkey NKp46
- T1 sequence (Q95JB9 22-306 limits assumed): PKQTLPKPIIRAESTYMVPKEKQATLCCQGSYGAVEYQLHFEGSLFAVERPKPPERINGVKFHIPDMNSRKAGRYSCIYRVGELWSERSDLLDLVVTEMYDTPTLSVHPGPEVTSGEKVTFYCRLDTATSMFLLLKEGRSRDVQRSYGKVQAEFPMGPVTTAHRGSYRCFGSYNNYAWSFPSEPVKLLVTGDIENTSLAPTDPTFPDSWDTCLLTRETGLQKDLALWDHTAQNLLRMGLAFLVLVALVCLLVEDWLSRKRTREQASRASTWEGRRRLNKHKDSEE
- assay details: flow cytometry, HEK293F cells transfected with cyno NKp46
Answers are plain numbers, in MFI.

Example results:
NKp46-hz5D7v1-Fc* (Fc fusion, VHH-Fc fusion with an IgG1 Fc lacking a hinge (Fc*)) EVQLVESGGGEVQPGGSLRLSCAASGRTFASAAMGWFRQAPGKGREFVAAISRSDDTYYAESVKGRFTISRDNAKNTLYLQMSSLRAEDTAVYYCAAVVPTYGNNIYVHSAAYNYWGQGTLVTVKPGGGGPSVFLFPPKPKDTLMISRTPEVTCVVVDVSHEDPEVKFNWYVDGVEVHNAKTKPREEQYNSTYRVVSVLTVLHQDWLNGKEYKCKVSNKALPAPIEKTISKAKGQPREPQVYTLPPSRDELTKNQVSLTCLVKGFYPSDIAVEWESNGQPENNYKTTPPVLDSDGSFFLYSKLTVDKSRWQQGNVFSCSVMHEALHNHYTQKSLSLSPG    67600
NKp46-hz5D7v2-Fc* (Fc fusion, VHH-Fc fusion with an IgG1 Fc lacking a hinge (Fc*); also called NKp46-bz5D7v2-Fc*) EVQLVESGGGEVQPGGSLRLSCAASGRTFASAAMGWFRQAPGKEREFVAAISRSDDTYYAESVKGRFTISRDNAKNTLYLQMSSLRAEDTAVYYCAAVVPTYGNNIYVHSAAYNYWGQGTLVTVKPGGGGPSVFLFPPKPKDTLMISRTPEVTCVVVDVSHEDPEVKFNWYVDGVEVHNAKTKPREEQYNSTYRVVSVLTVLHQDWLNGKEYKCKVSNKALPAPIEKTISKAKGQPREPQVYTLPPSRDELTKNQVSLTCLVKGFYPSDIAVEWESNGQPENNYKTTPPVLDSDGSFFLYSKLTVDKSRWQQGNVFSCSVMHEALHNHYTQKSLSLSPG    51500
NKp46-hz5D7v11-Fc* (Fc fusion, VHH-Fc fusion with an IgG1 Fc lacking a hinge (Fc*)) EVQLVESGGGEVQPGGSLRLSCAASGRTFASAAMGWFRQAPGKEREFVAAISRSDDTYYADSVKGRFTISRDNAKNTVYLQMSSLRAEDTAVYYCAAVVPTYGSNIYVYSAAYNYWGQGTLVTVKPGGGGPSVFLFPPKPKDTLMISRTPEVTCVVVDVSHEDPEVKFNWYVDGVEVHNAKTKPREEQYNSTYRVVSVLTVLHQDWLNGKEYKCKVSNKALPAPIEKTISKAKGQPREPQVYTLPPSRDELTKNQVSLTCLVKGFYPSDIAVEWESNGQPENNYKTTPPVLDSDGSFFLYSKLTVDKSRWQQGNVFSCSVMHEALHNHYTQKSLSLSPG    52300

Item under review: NKp46-hz5D7v7-Fc* (Fc fusion, VHH-Fc fusion with an IgG1 Fc lacking a hinge (Fc*); also called NKp46-bz5D7v7-Fc*) EVQLVESGGGEVQPGGSLRLSCAASGRTFASAAMGWFRQAPGKEREFVAAISRSGDTYYADSVKGRFTISRDNAKNTVYLQMSSLRAEDTAVYYCAAVVPTYGNNIYVHSAAYNYWGQGTLVTVKPGGGGPSVFLFPPKPKDTLMISRTPEVTCVVVDVSHEDPEVKFNWYVDGVEVHNAKTKPREEQYNSTYRVVSVLTVLHQDWLNGKEYKCKVSNKALPAPIEKTISKAKGQPREPQVYTLPPSRDELTKNQVSLTCLVKGFYPSDIAVEWESNGQPENNYKTTPPVLDSDGSFFLYSKLTVDKSRWQQGNVFSCSVMHEALHNHYTQKSLSLSPG . Reported Bmax (MFI)? 64600
